Each item that follows carries a reported pKi.
assayed target: Bcl-2 protein (Homo sapiens, UniProt P10415, DELINS35-91DVEENRTEAPEGTESE, form not given)
Construct: fused on or other part: Bcl-xL (Q07817) residues 29-44 stand in place of Bcl-2's own unstructured loop 35-91; The C-terminal membrane anchor (208-239) is absent
Sequence (P10415 with tags, fused parts or gaps with the stated changes): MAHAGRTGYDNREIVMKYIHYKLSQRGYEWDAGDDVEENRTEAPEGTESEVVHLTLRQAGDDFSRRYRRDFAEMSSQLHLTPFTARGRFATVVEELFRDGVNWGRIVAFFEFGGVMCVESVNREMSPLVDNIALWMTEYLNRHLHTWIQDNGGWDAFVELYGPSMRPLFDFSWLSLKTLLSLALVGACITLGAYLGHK
experiment notes: Bcl-2 fluorescence polarization assay (FPA) binding
run conditions: 10 nM Bcl-2 protein, 1 nM fluorescein-labeled BAX peptide, room temperature, read-out: Bcl-2 FPA 11pt Ki
pKi: −log10 of the molar value.
readout name: pKi

- compound: "CN1c2ccccc2-c2ccccc2C1c1ccccc1CN1CCN(c2ccc(C(=O)NS(=O)(=O)c3ccc(NCC4CCOCC4)c([N+](=O)[O-])c3)cc2)CC1 (centres unmarked) [Example 66]"
  measured: 8.10
- compound: "C[C@@H]1[C@@H](NC(=O)C23CCC(C=C2c2ccccc2CN2CCN(c4ccc(C(=O)NS(=O)(=O)c5ccc(NCC6CCOCC6)c([N+](=O)[O-])c5)cc4)CC2)C3(C)C)C[C@H]2C[C@@H]1C2(C)C [Example 36]"
  measured: 6.92
- compound: "O=C(NS(=O)(=O)c1ccc(NCC2CCOCC2)c([N+](=O)[O-])c1)c1ccc(N2CCC(=Cc3ccccc3-c3ccc(-c4nc(-c5ccccc5)cs4)s3)CC2)cc1 [Example 75]"
  measured: 6.60
- compound: "C[C@@H]1[C@@H](N(CCCc2ccccc2)c2ccc(-c3ccc(C(=O)NS(=O)(=O)c4ccc(NCC5CCCCC5)c([N+](=O)[O-])c4)cc3)cc2)C[C@H]2C[C@@H]1C2(C)C [Example 7]"
  measured: 5.90
- compound: "O=C(NS(=O)(=O)c1ccc(NCC2CCOCC2)c([N+](=O)[O-])c1)c1ccc(N2CCN(Cc3ccccc3-c3cn(C45CC6CC(CC(C6)C4)C5)nc3C(=O)N(c3ccccc3)c3ccccc3)CC2)cc1 [Example 24]"
  measured: 5.64

###

assayed target: Bcl-2 protein (Homo sapiens, UniProt P10415, DELINS35-91DVEENRTEAPEGTESE, form not given)
Construct: fused on or other part: Bcl-xL (Q07817) residues 29-44 stand in place of Bcl-2's own unstructured loop 35-91; The C-terminal membrane anchor (208-239) is absent
experiment notes: Bcl-2 fluorescence polarization assay (FPA) binding
run conditions: 10 nM Bcl-2 protein, 1 nM fluorescein-labeled BAX peptide, room temperature, read-out: Bcl-2 FPA 11pt Ki
Protocol: Assays for the inhibition of Bcl-2 were performed in 96-well microtiter plates. Compounds of the instant invention were diluted in DMSO to concentrations between […] and 10 pM and introduced into each well of the plate. […]
pKi: −log10 of the molar value.

- molecule: "O=C(NS(=O)(=O)c1ccc(NCC2CCOCC2)c([N+](=O)[O-])c1)c1ccc(N2CCN(Cc3ccccc3-c3ccc(CN4C5CCCC4CC5)s3)CC2)cc1"
  value prefix: "="
  pKi: 7.26
- molecule: "CC12CC3CC(C)(C1)CC(N1CCN(c4ccc(C(=O)NS(=O)(=O)c5ccc(NCC6CCCCC6)c([N+](=O)[O-])c5)cc4)CC1)(C3)C2"
  value prefix: "="
  pKi: 6.45
- molecule: "O=C(NS(=O)(=O)c1ccc(NC2CCOCC2)c([N+](=O)[O-])c1)c1ccc(N2CC3CC2CN3C(=O)C23CC4CC(CC(C4)C2)C3)cc1 (stereo not shown)"
  value prefix: "<"
  pKi: 5.20
- molecule: "O=C(NS(=O)(=O)c1ccc(NC2CCOCC2)c([N+](=O)[O-])c1)c1ccc(N2CCN(C(=O)C34CC5CC(CC(C5)C3)C4)CC2)cc1"
  value prefix: "="
  pKi: 5.29
- molecule: "O=C(NS(=O)(=O)c1ccc(N[C@H](CCN2CCOCC2)CSc2ccccc2)c([N+](=O)[O-])c1)c1ccc(N2CCN(CC34CC5CC(CC(C5)C3)C4)CC2)cc1"
  value prefix: ">"
  pKi: 7.70
- molecule: "CC1(C)C2C=C(c3ccccc3CN3CCN(c4ccc(C(=O)NS(=O)(=O)c5ccc(NCC6CCOCC6)c([N+](=O)[O-])c5)cc4)CC3)C1(C(=O)NC1CC1)CC2 (stereo not shown)"
  value prefix: "="
  pKi: 6.83
- molecule: "O=C(NS(=O)(=O)c1ccc(NCC2CCOCC2)c([N+](=O)[O-])c1)c1ccc(N2CCN(Cc3cc([N+](=O)[O-])ccc3N3CC4CCC(CC4)C3)CC2)cc1"
  value prefix: "="
  pKi: 7.50
- molecule: "O=C(NS(=O)(=O)c1ccc(NCC2CCOCC2)c([N+](=O)[O-])c1)c1ccc(N2CCN(Cc3ccccc3-c3ccc(C(=O)Nc4ccc5oc(-c6ccccc6)nc5c4)o3)CC2)cc1"
  value prefix: "="
  pKi: 5.83
- molecule: "O=C(NS(=O)(=O)c1ccc(NCC2CCOCC2)c([N+](=O)[O-])c1)c1ccc(N2CCN(Cc3ccccc3C3=CC4CC3C3CCCC43)CC2)cc1 (stereo not shown)"
  value prefix: ">"
  pKi: 7.70
- molecule: "CC12CC3CC(Br)(C1)CC(CN1CCN(c4ccc(C(=O)NS(=O)(=O)c5ccc(NCC6CCCCC6)c([N+](=O)[O-])c5)cc4)CC1)(C3)C2 (stereo not shown)"
  value prefix: "="
  pKi: 6.52
- molecule: "CC12CC3CC(C)(C1)CC(CN1CCN(c4ccc(C(=O)NS(=O)(=O)c5ccc(NCC6CCCCC6)c([N+](=O)[O-])c5)cc4)CC1)(C3)C2"
  value prefix: "="
  pKi: 6.22
- molecule: "CC1(C)O[C@@H]2[C@@H](CO[C@@]3(COS(=O)(=O)NC(=O)c4ccc(N5CCN(Cc6ccccc6-c6ccc(Cl)cc6)CC5)cc4)OC(C)(C)O[C@@H]23)O1"
  value prefix: ">"
  pKi: 7.70
- molecule: "O=C(NS(=O)(=O)c1ccc(NCC2CCCCC2)c([N+](=O)[O-])c1)c1ccc(N2CCC3CC2CN3CC23CC4CC(CC(C4)C2)C3)cc1 (stereo not shown)"
  value prefix: "="
  pKi: 7.07
- molecule: "Cc1cc(-c2ccccc2CN2CCN(c3ccc(C(=O)NS(=O)(=O)c4ccc(NCC5CCOCC5)c([N+](=O)[O-])c4)cc3)CC2)c2nc(C34CC5CC(CC(C5)C3)C4)cn2c1"
  value prefix: "="
  pKi: 6.01
- molecule: "O=C(NS(=O)(=O)c1ccc(NCC2CCCCC2)c([N+](=O)[O-])c1)c1ccc(N2CCN(CC34CC5CC(CC(C5)C3)C4)CC2)cc1"
  value prefix: "="
  pKi: 7.17
- molecule: "O=C(NS(=O)(=O)c1ccc(NCC2CCOCC2)c([N+](=O)[O-])c1)c1ccc(N2CCN(Cc3ccccc3-c3ccc(-c4nc(-c5ccccc5)cs4)s3)CC2)cc1"
  value prefix: "="
  pKi: 6.55
- molecule: "O=C(CCN(Cc1ccccc1)C(=O)CC12CC3CC(CC(C3)C1)C2)NS(=O)(=O)c1ccc(NCC2CCCCC2)c([N+](=O)[O-])c1"
  value prefix: "="
  pKi: 5.86
- molecule: "CC1(C)[C@H]2CC[C@]1(CS(=O)(=O)NC(=O)c1ccc(N3CCN(Cc4ccccc4-c4ccc(Cl)cc4)CC3)cc1)C(=O)C2"
  value prefix: "="
  pKi: 6.87
- molecule: "O=C(NS(=O)(=O)c1ccc(NC2CCOCC2)c([N+](=O)[O-])c1)c1ccc(N2CCN(C(=O)CC34CC5CC(CC(C5)C3)C4)CC2)cc1"
  value prefix: "="
  pKi: 5.33
- molecule: "COc1ccc(-c2ccc3cc(C(=O)NS(=O)(=O)c4ccc(NCC5CCCCC5)c([N+](=O)[O-])c4)ccc3c2)cc1C12CC3CC(CC(C3)C1)C2"
  value prefix: "="
  pKi: 5.89
- molecule: "CC1(C)C2C=C(c3ccccc3CN3CCN(c4ccc(C(=O)NS(=O)(=O)c5ccc(NCC6CCOCC6)c([N+](=O)[O-])c5)cc4)CC3)C1(C(=O)Nc1ccccc1)CC2 (stereo not shown)"
  value prefix: "="
  pKi: 7.66
- molecule: "O=C(NS(=O)(=O)c1ccc(NCC2CCOCC2)c([N+](=O)[O-])c1)c1ccc(N2CCN(Cc3ccccc3C(=C(c3ccccc3)c3ccccc3)c3ccccc3)CC2)cc1"
  value prefix: "="
  pKi: 6.03

###

assayed target: Bcl-2 protein (Homo sapiens, UniProt P10415, DELINS35-91DVEENRTEAPEGTESE, form not given)
Construct: fused on or other part: Bcl-xL (Q07817) residues 29-44 stand in place of Bcl-2's own unstructured loop 35-91; The C-terminal membrane anchor (208-239) is absent
experiment notes: Bcl-2 fluorescence polarization assay (FPA) binding
run conditions: 10 nM Bcl-2 protein, 1 nM fluorescein-labeled BAX peptide, room temperature, read-out: Bcl-2 FPA 11pt Ki
pKi: −log10 of the molar value.
readout name: pKi

- molecule: "O=C(NS(=O)(=O)c1ccc(NCC2CCCCC2)c([N+](=O)[O-])c1)c1ccc(N2CCN(C34CC5CC(CC(C5)C3)C4)CC2)cc1"
  value prefix: "<"
  measured: 5.01
- molecule: "O=C(NS(=O)(=O)c1ccc(NCC2CCOCC2)c([N+](=O)[O-])c1)c1ccc(N2CCC(=Cc3ccccc3-c3ccc(-c4nc(C56CC7CC(CC(C7)C5)C6)cs4)s3)CC2)cc1"
  value prefix: "="
  measured: 6.99
- molecule: "C[C@@H]1[C@H]2C[C@@H](C[C@H]1Oc1ccc(C(=O)NS(=O)(=O)c3ccc(NC4CCOCC4)c([N+](=O)[O-])c3)cc1)C2(C)C"
  value prefix: "="
  measured: 5.54
- molecule: "C[C@@H]1[C@@H](N(C(=O)CCc2ccccc2)C2CCN(c3ccc(C(=O)NS(=O)(=O)c4ccc(N[C@H](CCN5CCOCC5)CSc5ccccc5)c(S(=O)(=O)C(F)(F)F)c4)cc3)CC2)C[C@H]2C[C@@H]1C2(C)C"
  value prefix: ">"
  measured: 7.70
- molecule: "C[C@@H]1[C@@H](Nc2ccc(C=C3CCN(c4ccc(C(=O)NS(=O)(=O)c5ccc(NCC6CCOCC6)c([N+](=O)[O-])c5)cc4)CC3)cc2)C[C@H]2C[C@@H]1C2(C)C"
  value prefix: "="
  measured: 6.54
